- Test system: hTERT ipnNF95.11c (plexiform neurofibroma) cell line
- Test Name: Cell viability of NF1-mutant tumor cell line hTERT ipnNF95.11c (MTT or AlamarBlue)
- Assay type: cell-based
- Study Conditions: 168 h, NF1 c. 1756delACTA, 7 days treatment
Attribute Measured: EC50 (nM)
Numbers only, in nM.

Q) Name the recorded EC50 for N[C@H]1CC[C@H](N[C@@H]2C[C@H]2c2ccccc2)CC1 [Iadademstat] .
A) 0.841

* * *

Please go through the items and note down their EC50.
- Tested on: MOLM13 (AML) cell line
- Test Name: Cell viability of NF1-mutant tumor cell line MOLM13 (MTT or AlamarBlue)
- Assay type: cell-based
- Study Conditions: Homo sapiens, MOLM-13, 96 h, NF1 p. E1720D, 4 days treatment
Answers are plain numbers, in nM.

The examples below pair each entry with its known result.
# Smiles Structure, Result Units, EC50
data = [
    ("CN1CCN(C(=O)[C@H](CCCN[C@@H]2C[C@H]2c2ccc(F)cc2)NC(=O)c2ccc(-n3ccnn3)cc2)CC1", "nM", 5.38),
    ("COc1ccc(-c2c(-c3ccc(C#N)c(F)c3)nc(N3CCC(N)CC3)n(C)c2=O)cc1F", "nM", 0.82),
]

Switching to the query record.
Q) Name the recorded EC50 for "N[C@H]1CC[C@H](N[C@@H]2C[C@H]2c2ccccc2)CC1" .
A) 0.158
